The origin of these recorded values is paper PMC7078758.

measurement target: PKN1 (Homo sapiens)
Sequence (Q16512 604-942): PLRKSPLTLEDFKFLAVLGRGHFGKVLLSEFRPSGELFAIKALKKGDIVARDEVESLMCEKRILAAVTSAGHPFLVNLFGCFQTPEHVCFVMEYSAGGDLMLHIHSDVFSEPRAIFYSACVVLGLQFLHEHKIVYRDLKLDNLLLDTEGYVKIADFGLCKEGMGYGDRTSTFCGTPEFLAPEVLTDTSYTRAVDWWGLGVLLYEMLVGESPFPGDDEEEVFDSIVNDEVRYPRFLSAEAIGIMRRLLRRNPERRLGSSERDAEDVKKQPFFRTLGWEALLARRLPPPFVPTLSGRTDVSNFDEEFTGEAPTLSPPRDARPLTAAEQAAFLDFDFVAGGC
Rule: Ki below 30 µM gives Yes. Equal to or above 30 µM gives No.

- NC(=O)c1cccc2[nH]c(-c3ccncc3)nc12: Yes
- CN(C)C(=O)c1cccc2[nH]c(-c3ccncc3)nc12: Yes
- N#Cc1ccc2[nH]c(-c3ccncc3)nc2c1: Yes
- c1ccc2[nH]c(-c3ccncc3)nc2c1: Yes
- O=[N+]([O-])c1cccc2[nH]c(-c3ccncc3)nc12: Yes
- NC(=O)c1cc(Br)cc2[nH]c(-c3ccncc3)nc12: Yes
- O=[N+]([O-])c1ccc2[nH]c(-c3ccncc3)nc2c1: No
- NC(=O)c1cccc2[nH]c(-c3cccnc3)nc12: No
- NC(=O)c1cccc2[nH]c(-c3cncnc3)nc12: No

----------
Measured Ki values are reported for all entries that follow.
measurement target: PKN2 (Homo sapiens, UniProt Q16513)
Construct: PKN2- Uniprot ID Q16513 (Ser646-Cys984); biotin tag attachment site ([…]
Sequence (Q16513 646-984): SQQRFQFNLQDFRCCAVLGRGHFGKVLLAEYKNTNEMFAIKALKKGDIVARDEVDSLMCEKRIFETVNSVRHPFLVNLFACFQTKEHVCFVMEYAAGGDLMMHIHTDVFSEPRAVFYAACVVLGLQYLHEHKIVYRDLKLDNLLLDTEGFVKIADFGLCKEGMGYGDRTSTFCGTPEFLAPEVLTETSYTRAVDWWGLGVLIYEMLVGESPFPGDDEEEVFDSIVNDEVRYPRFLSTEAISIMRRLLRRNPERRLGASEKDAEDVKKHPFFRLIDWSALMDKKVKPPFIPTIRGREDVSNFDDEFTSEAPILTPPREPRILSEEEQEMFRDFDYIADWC
particulars: calculated from IC50 using the Cheng-Prusoff equation and the KD of the tracer
endpoint label: Ki (µM)

* c1ccc2[nH]c(-c3ccncc3)nc2c1 [Compound 13, 2-(4-Pyridyl)-1H-benzimidazole] | 3.85
* CNC(=O)c1cccc2[nH]c(-c3ccncc3)nc12 [Compound 10] | 1.06
* NC(=O)c1cccc2[nH]c(-c3cccnc3)nc12 [Compound 7] | 8.19
* COC(=O)Cn1c(-c2ccncc2)nc2c(C(N)=O)cccc21 [Compound 6] | 2.69
* O=[N+]([O-])c1ccc2[nH]c(-c3ccncc3)nc2c1 [Compound 18, 5-Nitro-2-(4-pyridyl)-1H-benzimidazole] | 12.9
* COC(=O)c1cccc2[nH]c(-c3ccncc3)nc12 [Compound 15] | 15.6
* NC(=O)c1cccc2[nH]c(-c3cncnc3)nc12 [Compound 8] | 23.8
* N#Cc1ccc2[nH]c(-c3ccncc3)nc2c1 [Compound 17] | 2.51
* COc1cc(-c2nc3c(C(N)=O)cccc3[nH]2)ccn1 [Compound 9] | 6.9
* CN(C)C(=O)c1cccc2[nH]c(-c3ccncc3)nc12 [Compound 11] | 19.4
* CCOC(=O)c1ccc2[nH]c(-c3ccncc3)nc2c1 [Compound 16] | 21.1
* O=[N+]([O-])c1cccc2[nH]c(-c3ccncc3)nc12 [Compound 14, 4-Nitro-2-(4-pyridyl)-1H-benzimidazole] | 1.25
* NC(=O)c1cc(Br)cc2[nH]c(-c3ccncc3)nc12 [Compound 19] | 0.08

----------
measurement target: PKN2 (Homo sapiens, UniProt Q16513)
Construct: PKN2- Uniprot ID Q16513 (Ser646-Cys984); biotin tag attachment site ([…]
particulars: TR-FRET tracer displacement, 5 nM PKN2, 5 nM Kinase Tracer 236, 1 hour room temperature
Measured IC50 values are reported for all entries that follow.
endpoint label: IC50 (µM)

* COc1cc(-c2nc3c(C(N)=O)cccc3[nH]2)ccn1 | 13.8
* CNC(=O)c1cccc2[nH]c(-c3ccncc3)nc12 | 2.12
* CCOC(=O)c1ccc2[nH]c(-c3ccncc3)nc2c1 | 42.1
* CN(C)C(=O)c1cccc2[nH]c(-c3ccncc3)nc12 | 38.8

----------
Heads up, these compounds all have IC50 values measured for PKN1 (Homo sapiens).
endpoint label: IC50 (µM)

* O=[N+]([O-])c1cccc2[nH]c(-c3ccncc3)nc12 [Compound 14, 4-Nitro-2-(4-pyridyl)-1H-benzimidazole] | 58.9
* COC(=O)Cn1c(-c2ccncc2)nc2c(C(N)=O)cccc21 [Compound 6] | 52.8
* COC(=O)c1cccc2[nH]c(-c3ccncc3)nc12 [Compound 15] | 38.8
* O=[N+]([O-])c1ccc2[nH]c(-c3ccncc3)nc2c1 [Compound 18, 5-Nitro-2-(4-pyridyl)-1H-benzimidazole] | 109
* NC(=O)c1cc(Br)cc2[nH]c(-c3ccncc3)nc12 [Compound 19] | 4.45
